# Tested Target: NTT1ΔC (Arabidopsis thaliana)
# Construct: gene AATP1; mature form (first 79 residues removed) with last 41 residues deleted (deletion borders computed from a recalled length of 624); tagged; E. coli; purified in LAPAO; partly aggregated
# Sequence (Q39002 80-583): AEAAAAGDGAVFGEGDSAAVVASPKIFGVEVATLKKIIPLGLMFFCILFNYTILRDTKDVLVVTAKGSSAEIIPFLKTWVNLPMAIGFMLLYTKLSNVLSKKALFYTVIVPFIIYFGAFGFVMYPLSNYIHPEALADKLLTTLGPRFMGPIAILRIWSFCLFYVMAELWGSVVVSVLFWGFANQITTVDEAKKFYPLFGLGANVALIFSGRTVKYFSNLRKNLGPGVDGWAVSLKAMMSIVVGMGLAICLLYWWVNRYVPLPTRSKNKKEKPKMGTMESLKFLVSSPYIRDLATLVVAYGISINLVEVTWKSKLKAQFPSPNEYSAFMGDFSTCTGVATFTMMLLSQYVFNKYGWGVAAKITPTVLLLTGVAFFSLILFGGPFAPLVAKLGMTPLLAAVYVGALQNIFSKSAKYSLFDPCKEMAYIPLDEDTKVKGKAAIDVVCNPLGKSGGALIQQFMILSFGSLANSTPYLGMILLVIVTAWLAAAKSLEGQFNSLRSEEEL
# Test Summary: tryptophan fluorescence variation, two-site fit
# Type: binding
# Measurement Parameters: 20 mM Tris pH 8, 10 mM NaCl, 0.1% LAPAO, 25°C; stronger site of two-site fit; read-out: Affinity for ADP
Property Label: Kd (nM)
# output: bare number, implied unit nM

Looking up Nc1ncnc2c1ncn2[C@@H]1O[C@H](COP(=O)(O)OP(=O)(O)O)[C@@H](O)[C@H]1O [ADP] , I see its Kd listed as 600

----------
# Tested Target: NTT1 (plastid / chloroplast ATP/ADP transporter 1) (Arabidopsis thaliana, UniProt Q39002, K528R)
# Construct: gene AATP1; mature form lacking first 79 residues (transit peptide), N-terminal His-tag, C-terminal StreptagII; E. coli; purified in LAPAO; monomers and dimers
# Sequence (Q39002 80-624 K528R): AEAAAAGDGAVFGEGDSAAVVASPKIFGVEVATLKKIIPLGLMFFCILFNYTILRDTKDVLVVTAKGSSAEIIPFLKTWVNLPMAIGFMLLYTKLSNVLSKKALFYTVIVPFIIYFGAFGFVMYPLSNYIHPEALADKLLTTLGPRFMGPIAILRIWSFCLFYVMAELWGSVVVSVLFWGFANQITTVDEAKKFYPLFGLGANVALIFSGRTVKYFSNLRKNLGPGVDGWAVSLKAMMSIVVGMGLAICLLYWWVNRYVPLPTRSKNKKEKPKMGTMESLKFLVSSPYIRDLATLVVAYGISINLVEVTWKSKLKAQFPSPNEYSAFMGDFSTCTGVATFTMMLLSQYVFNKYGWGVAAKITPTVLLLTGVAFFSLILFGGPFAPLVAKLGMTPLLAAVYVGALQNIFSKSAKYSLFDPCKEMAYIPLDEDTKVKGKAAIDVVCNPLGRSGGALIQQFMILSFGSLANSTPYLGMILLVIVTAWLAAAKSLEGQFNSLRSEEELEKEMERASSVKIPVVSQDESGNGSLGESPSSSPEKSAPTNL
# Test Summary: tryptophan fluorescence variation
# Format: binding
# Measurement Parameters: read-out: Affinity for ADP
Property Label: Kd
Could you give the number and then its unit, please?

Looking up "Nc1ncnc2c1ncn2[C@@H]1O[C@H](COP(=O)(O)OP(=O)(O)O)[C@@H](O)[C@H]1O" , I see its Kd listed as 33.5 µM
